System: E. coli TOP10
Assay: microbe, parasite or virus in culture
Type: cell-based
Details: TOP10, 26 h
No end group written: not given here.

substance: GLKKLFSKIKIIGSALKNLA-NH2 [AMP4]
valuePrefix: =
MIC, µg/mL: 3.1
--
substance: FLPAFKNVISKILKALKKKV-NH2 [AMP5]
valuePrefix: =
MIC, µg/mL: 12.5
--
substance: EIEYGNPGVGTDR-NH2 [AMP9NC]
valuePrefix: >
MIC, µg/mL: 100
--
substance: FLGPIIKTVRAVLCAIKKL-NH2 [AMP6]
valuePrefix: =
MIC, µg/mL: 25
--
substance: KRFLPSCVRSIQNLDDALPTPEEF-NH2 [AMP8NC]
valuePrefix: >
MIC, µg/mL: 100
--
substance: ILPLLKKFGKKFGKKVWKAL-NH2 [AMP1]
valuePrefix: =
MIC, µg/mL: 25
--
substance: GLRSSVKTLLRGLLGIIKKF-NH2 [AMP3]
valuePrefix: >
MIC, µg/mL: 100
--
substance: TLPEWDDRRVVNS-NH2 [AMP10NC]
valuePrefix: >
MIC, µg/mL: 100
--
substance: IKALLALPKLAKKIAKKFLK-NH2 [AMP2]
valuePrefix: =
MIC, µg/mL: 50
--
substance: LFTMADPIQSIEKEI-NH2 [AMP7NC]
valuePrefix: >
MIC, µg/mL: 100
